target: CLK1 (human) (UniProt P49759); assay: KINOMEscan competition binding; settings: compound 10.0 µM
Sequence (P49759 whole entry, looked up): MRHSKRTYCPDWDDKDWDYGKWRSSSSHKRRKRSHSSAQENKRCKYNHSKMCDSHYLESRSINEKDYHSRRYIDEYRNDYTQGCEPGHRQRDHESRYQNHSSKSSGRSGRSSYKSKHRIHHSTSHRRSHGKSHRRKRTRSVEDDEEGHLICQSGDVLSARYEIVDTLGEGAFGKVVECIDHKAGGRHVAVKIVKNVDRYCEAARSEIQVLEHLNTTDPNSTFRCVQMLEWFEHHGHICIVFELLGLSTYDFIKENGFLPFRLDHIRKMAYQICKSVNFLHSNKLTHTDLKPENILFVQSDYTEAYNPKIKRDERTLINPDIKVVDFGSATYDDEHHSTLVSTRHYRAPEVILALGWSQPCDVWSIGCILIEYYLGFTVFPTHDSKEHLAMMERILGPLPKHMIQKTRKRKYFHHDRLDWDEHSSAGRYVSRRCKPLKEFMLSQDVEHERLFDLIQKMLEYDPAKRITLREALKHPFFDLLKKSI
assayMetric: kinase still bound, per cent of control (%)

Cc1cnc(-c2cnc(NCCNc3ccc(C#N)cn3)nc2-c2ccc(Cl)cc2Cl)[nH]1 = 49

[A] O=C1Nc2cc(Br)ccc2/C1=C1/Nc2ccccc2/C1=N\O
[B] Cn1cc(C2=C(c3ccc(Cl)cc3Cl)C(=O)NC2=O)c2ccccc21
[C] COc1ccc(CNC(=O)Nc2ncc([N+](=O)[O-])s2)cc1
# input Order the records by kinase still bound, per cent of control, with each subsequent value no larger than the one before. The labels, placed in the requested order, form the answer.
# output C, A, B
(C: 62%, A: 34%, B: 1.6%)

* * *

biological target: TYK2 JH1 catalytic (human); assay: KINOMEscan competition binding; conditions: compound 10.0 µM
assayMetric: kinase still bound, per cent of control (%)

Examples from the recorded data:
COc1ccc(CNC(=O)Nc2ncc([N+](=O)[O-])s2)cc1 = 100
Cn1cc(C2=C(c3ccc(Cl)cc3Cl)C(=O)NC2=O)c2ccccc21 = 100

[1] Cc1cnc(-c2cnc(NCCNc3ccc(C#N)cn3)nc2-c2ccc(Cl)cc2Cl)[nH]1
[2] O=C1Nc2cc(Br)ccc2/C1=C1/Nc2ccccc2/C1=N\O
# input Which entry has a larger number for kinase still bound, per cent of control, 1 or 2 ? Write down the label attached to your selection.
# output 1

* * *

molecular target: UniProt P36888; assay: KINOMEscan competition binding; details: compound 10.0 µM
Sequence (P36888 whole entry, looked up): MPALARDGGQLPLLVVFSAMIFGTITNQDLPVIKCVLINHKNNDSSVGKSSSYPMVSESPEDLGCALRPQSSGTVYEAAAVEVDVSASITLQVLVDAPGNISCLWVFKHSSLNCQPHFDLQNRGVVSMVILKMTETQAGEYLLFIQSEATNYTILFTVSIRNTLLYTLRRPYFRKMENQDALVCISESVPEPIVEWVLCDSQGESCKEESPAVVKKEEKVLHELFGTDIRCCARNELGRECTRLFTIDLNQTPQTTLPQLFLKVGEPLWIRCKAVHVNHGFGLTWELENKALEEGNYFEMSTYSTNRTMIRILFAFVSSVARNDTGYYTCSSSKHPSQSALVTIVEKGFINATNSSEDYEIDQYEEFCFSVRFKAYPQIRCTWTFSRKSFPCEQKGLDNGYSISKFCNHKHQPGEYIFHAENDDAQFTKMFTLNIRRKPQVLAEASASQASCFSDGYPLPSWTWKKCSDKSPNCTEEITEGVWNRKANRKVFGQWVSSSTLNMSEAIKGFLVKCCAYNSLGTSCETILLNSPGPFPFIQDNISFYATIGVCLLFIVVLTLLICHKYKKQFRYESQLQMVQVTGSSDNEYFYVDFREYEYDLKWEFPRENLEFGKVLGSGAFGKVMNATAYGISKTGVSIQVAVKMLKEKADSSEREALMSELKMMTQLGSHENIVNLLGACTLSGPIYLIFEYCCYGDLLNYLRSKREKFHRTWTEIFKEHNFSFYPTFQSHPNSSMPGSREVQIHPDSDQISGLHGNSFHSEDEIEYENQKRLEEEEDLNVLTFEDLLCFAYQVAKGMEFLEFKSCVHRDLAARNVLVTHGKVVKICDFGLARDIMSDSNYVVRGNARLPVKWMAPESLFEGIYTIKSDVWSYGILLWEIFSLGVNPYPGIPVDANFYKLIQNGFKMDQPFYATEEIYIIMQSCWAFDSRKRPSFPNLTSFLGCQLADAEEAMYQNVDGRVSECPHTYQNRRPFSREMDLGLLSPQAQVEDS
assayMetric: kinase still bound, per cent of control (%)

Reference set (2 entries):
COc1ccc(CNC(=O)Nc2ncc([N+](=O)[O-])s2)cc1 = 86
Cc1cnc(-c2cnc(NCCNc3ccc(C#N)cn3)nc2-c2ccc(Cl)cc2Cl)[nH]1 = 100

[P] Cn1cc(C2=C(c3ccc(Cl)cc3Cl)C(=O)NC2=O)c2ccccc21
[Q] O=C1Nc2cc(Br)ccc2/C1=C1/Nc2ccccc2/C1=N\O
# input Kindly compare P with Q and tell me which has the lower kinase still bound, per cent of control figure. Mark your selection by writing its label.
# output Q
(Q: 0.05%, P: 93%)

* * *

biological target: UniProtKB O95382; assay: KINOMEscan competition binding; details: compound 10.0 µM
Sequence (O95382 whole entry, looked up): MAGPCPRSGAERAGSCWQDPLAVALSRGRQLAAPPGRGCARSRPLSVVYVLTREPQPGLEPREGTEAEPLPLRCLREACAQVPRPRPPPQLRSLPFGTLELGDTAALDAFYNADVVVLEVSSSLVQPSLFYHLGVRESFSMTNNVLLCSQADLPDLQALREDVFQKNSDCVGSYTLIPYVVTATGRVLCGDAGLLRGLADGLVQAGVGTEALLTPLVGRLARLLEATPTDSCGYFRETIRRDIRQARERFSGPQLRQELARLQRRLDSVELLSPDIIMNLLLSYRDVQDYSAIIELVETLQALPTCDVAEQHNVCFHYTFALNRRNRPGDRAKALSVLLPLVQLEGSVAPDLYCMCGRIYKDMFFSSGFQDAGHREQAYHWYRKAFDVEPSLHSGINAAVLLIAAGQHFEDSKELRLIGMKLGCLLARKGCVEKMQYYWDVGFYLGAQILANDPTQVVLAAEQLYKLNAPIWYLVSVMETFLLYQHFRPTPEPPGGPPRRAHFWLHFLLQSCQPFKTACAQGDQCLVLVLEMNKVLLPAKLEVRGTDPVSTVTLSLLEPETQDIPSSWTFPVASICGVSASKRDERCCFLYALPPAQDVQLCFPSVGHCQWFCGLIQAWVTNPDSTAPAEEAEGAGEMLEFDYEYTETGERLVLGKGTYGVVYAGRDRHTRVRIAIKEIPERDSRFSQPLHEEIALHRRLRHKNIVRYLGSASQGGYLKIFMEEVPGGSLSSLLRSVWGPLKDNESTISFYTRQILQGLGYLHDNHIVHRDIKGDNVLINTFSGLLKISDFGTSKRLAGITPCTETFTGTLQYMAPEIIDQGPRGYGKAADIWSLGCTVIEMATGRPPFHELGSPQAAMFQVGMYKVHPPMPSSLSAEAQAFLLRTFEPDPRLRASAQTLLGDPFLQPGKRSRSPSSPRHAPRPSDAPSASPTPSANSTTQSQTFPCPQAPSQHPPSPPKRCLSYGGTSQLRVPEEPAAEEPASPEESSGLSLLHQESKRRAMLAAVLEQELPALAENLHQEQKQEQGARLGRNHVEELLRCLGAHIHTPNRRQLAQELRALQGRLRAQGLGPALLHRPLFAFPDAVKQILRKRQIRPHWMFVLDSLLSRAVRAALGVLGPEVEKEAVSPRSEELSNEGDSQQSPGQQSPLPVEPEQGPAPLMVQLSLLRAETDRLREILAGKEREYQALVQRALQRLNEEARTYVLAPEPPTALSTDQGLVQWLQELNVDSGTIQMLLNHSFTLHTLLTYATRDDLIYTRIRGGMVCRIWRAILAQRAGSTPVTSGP
assayMetric: kinase still bound, per cent of control (%)

Guide cases for kinase still bound, per cent of control, answers given:
COc1ccc(CNC(=O)Nc2ncc([N+](=O)[O-])s2)cc1 = 85
Cc1cnc(-c2cnc(NCCNc3ccc(C#N)cn3)nc2-c2ccc(Cl)cc2Cl)[nH]1 = 80

[I] Cn1cc(C2=C(c3ccc(Cl)cc3Cl)C(=O)NC2=O)c2ccccc21
[II] O=C1Nc2cc(Br)ccc2/C1=C1/Nc2ccccc2/C1=N\O
# input I or II : whose kinase still bound, per cent of control is greater? Your choice should be expressed through its label.
# output I
(I: 64%, II: 41%)

* * *

molecular target: STK24 (human); experiment: KINOMEscan competition binding; conditions: compound 10.0 µM
assayMetric: kinase still bound, per cent of control (%)

[1] O=C1Nc2cc(Br)ccc2/C1=C1/Nc2ccccc2/C1=N\O
[2] COc1ccc(CNC(=O)Nc2ncc([N+](=O)[O-])s2)cc1
# input Of the pair 1 and 2 , name the member with the lesser recorded kinase still bound, per cent of control. Your choice should be expressed through its label.
# output 1
